B1: ZNF207 (parent)
chain: FQPQPVQPQQGYIPPMAQPGLPPV

Variants of: B1
Test: protein stability index of a GFP-peptide fusion (GPS, HEK-293T) (PSI 1-6); higher = more stable;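 note: lentivirally expressed fusions sorted by FACS into six bins by GFP to DsRed ratio, PSI derived from sequencing read proportions per bin multiplied by bin number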
Settings: c terminus: a fixed tail appended
Assay Endpoint: protein stability index

• FQPQPVSPQQGYIPPMAQPGLPPV [Q7S] = 3.5
• FQPQPVQPQQGYFPPMAQPGLPPV [I13F] = 3.4
• FQPQPVQPQQGYIGPMAQPGLPPV [P14G] = 2.79
• FQPQPVQPQQGYIPPMTQPGLPPV [A17T] = 3.22
• FQPQPVQPQQGLIPPMAQPGLPPV [Y12L] = 3.81
• RQPQPVQPQQGYIPPMAQPGLPPV [F1R] = 4
• FQPQPRQPQQGYIPPMAQPGLPPV [V6R] = 2.92
• FQPQPVQPQQGYIPSMAQPGLPPV [P15S] = 2.87
• FQPRPVQPQQGYIPPMAQPGLPPV [Q4R] = 2.78
• FQPQPVQPQQGYIPYMAQPGLPPV [P15Y] = 2.66
• FQPQPVQPQQVYIPPMAQPGLPPV [G11V] = 2.56
• FQPQPVQPQQGYIPPMAQPGLRPV [P22R] = 2.88
• FQPQPVQPQQSYIPPMAQPGLPPV [G11S] = 2.8
• FQPQPVQPQQGYIPPRAQPGLPPV [M16R] = 2.97
• FQPQPVQPLQGYIPPMAQPGLPPV [Q9L] = 2.54
• FQPQPVQPQYGYIPPMAQPGLPPV [Q10Y] = 2.64
• FQPQPVQPQQGYCPPMAQPGLPPV [I13C] = 3.33
• FQPQPVQPQQGYIPPMAQPGLPPS [V24S] = 2.93
• FQPQPVQPQQGYIPPMAQPDLPPV [G20D] = 2.89
• FQPQPVQPQQGYDPPMAQPGLPPV [I13D] = 3.57
• FQPQFVQPQQGYIPPMAQPGLPPV [P5F] = 2.33
• FQPQPVQPQQGWIPPMAQPGLPPV [Y12W] = 2.6
• NQPQPVQPQQGYIPPMAQPGLPPV [F1N] = 4.33
